B1: Hairpin Ribozyme (parent)
chain: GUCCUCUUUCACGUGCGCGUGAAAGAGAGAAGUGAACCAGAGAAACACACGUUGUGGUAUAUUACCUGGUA

Variants of: B1
procedure_text: self-cleavage, relative activity (ratio to wild type); higher = more cleavage; co-transcriptional
Would you mind labelling by self-cleavage? At or over 0.5 is Satisfied, under is Not satisfied.

| mutation_list | assigned_label |
| --- | --- |
| G51C A61U | Not satisfied |
| A30C U53G | Not satisfied |
| C6U U9G | Not satisfied |
| U7C A11C | Satisfied |
| C50A G54U | Satisfied |
| C50G A64G | Not satisfied |
| U20G G21U | Satisfied |
| A22C U60A | Satisfied |
| G29U G69A | Not satisfied |
| C6A C50A | Not satisfied |
| A64C C66G | Not satisfied |
| G17C C38U | Not satisfied |
| A49C A61U | Not satisfied |
| G57A U70C | Not satisfied |
| C37A G40U | Not satisfied |
| C18G U52A | Satisfied |
| C6G G57U | Not satisfied |
| A24G U63G | Not satisfied |
| A11G G17A | Satisfied |
| U7C G69U | Not satisfied |
